- System: Calf thymus DNA
- experiment-summary: Binding affinity to calf thymus DNA assessed as isosbestic point after 30 mins by spectral analysis
- Assay type: nucleic-acid assay
- condition-set: Bos taurus
The source made the active and inactive calls. The calls are words filed in the database; no cut-off is given here. Starred links: 1 amine or outer side, 2 acyl side, 3 side chain; linkers in the order of their positions; H or OH if unused. Positions of bridges follow the written chain, without caps; N, C: chain ends. Non-standard residues stand in square brackets, D forms with d. Residues, ends and D or L forms follow the SMILES beside them. Chains are numbered I, II in the order given. Actinocin(1to9) = Cc1c2oc3c(C)ccc(C(=O)[*:2])c3nc-2c(C(=O)[*:1])c(N)c1=O; NMeV = CN[C@H](C(=O)O)C(C)C; Sar = CNCC(=O)O
Labels: 1 for active, -1 for inactive

{"molecule": "Cc1c2oc3c(C)ccc(C(=O)N[C@H](C(=O)N[C@@H](C(=O)NN)C(C)C)[C@@H](C)O)c3nc-2c(C(=O)N[C@H](C(=O)N[C@@H](C(=O)NN)C(C)C)[C@@H](C)O)c(N)c1=O", "category-label": -1}
{"molecule": "COC(=O)[C@@H]1CC(=O)CN1C(=O)[C@H](NC(=O)[C@@H](NC(=O)c1c2nc3c(C(=O)N[C@H](C(=O)N[C@@H](C(=O)N4CC(=O)C[C@H]4C(=O)OC)C(C)C)[C@@H](C)O)ccc(C)c3oc-2c(C)c(=O)c1N)[C@@H](C)O)C(C)C", "category-label": -1}
{"molecule": "COC(=O)[C@@H]1CCCN1C(=O)[C@H](NC(=O)[C@@H](NC(=O)c1c2nc3c(C(=O)N[C@H](C(=O)N[C@@H](C(=O)N4CCC[C@H]4C(=O)OC)C(C)C)[C@@H](C)O)ccc(C)c3oc-2c(C)c(=O)c1N)[C@@H](C)O)C(C)C", "category-label": -1}
{"molecule": "Cc1c2oc3c(C)ccc(C(=O)N[C@H](C(=O)N[C@@H](C(=O)NCCO)C(C)C)[C@@H](C)O)c3nc-2c(C(=O)N[C@H](C(=O)N[C@@H](C(=O)NCCO)C(C)C)[C@@H](C)O)c(N)c1=O", "category-label": -1}
{"molecule": "CNC(=O)[C@H](NC(=O)[C@@H](NC(=O)c1c2nc3c(C(=O)N[C@H](C(=O)N[C@@H](C(=O)NC)C(C)C)[C@@H](C)O)ccc(C)c3oc-2c(C)c(=O)c1N)[C@@H](C)O)C(C)C", "category-label": -1}
{"molecule": "COC(=O)[C@H](NC(=O)[C@@H](NC(=O)c1c2nc3c(C(=O)N[C@H](C(=O)N[C@@H](C(=O)OC)C(C)C)[C@@H](C)OC(C)=O)ccc(C)c3oc-2c(C)c(=O)c1N)[C@@H](C)OC(C)=O)C(C)C", "category-label": -1}
{"molecule": "Cc1c2oc3c(C)ccc(C(=O)N[C@@H]4C(=O)N[C@H](C(C)C)C(=O)N5CCC[C@H]5C(=O)N(C)CC(=O)N(C)[C@@H](C(C)C)C(=O)O[C@@H]4C)c3nc-2c(C(=O)N[C@@H]2C(=O)N[C@H](C(C)C)C(=O)N3CCC[C@H]3C(=O)N(C)CC(=O)N(C)[C@@H](C(C)C)C(=O)O[C@@H]2C)c(N)c1=O [DACTINOMYCIN] (I: T[dV]P[Sar][NMeV] / II: T[dV]P[Sar][NMeV]; ester I:1-I:C, II:1-II:C; linker I:N-II:N via Actinocin(1to9))", "category-label": 1}
{"molecule": "Cc1c2oc3c(C)ccc(C(=O)N[C@H](C(=O)N[C@@H](C(=O)O)C(C)C)[C@@H](C)O)c3nc-2c(C(=O)N[C@H](C(=O)N[C@@H](C(=O)O)C(C)C)[C@@H](C)O)c(N)c1=O", "category-label": -1}
{"molecule": "COC(=O)[C@H](NC(=O)[C@@H](NC(=O)c1c2nc3c(C(=O)N[C@H](C(=O)N[C@@H](C(=O)OC)C(C)C)[C@@H](C)O)ccc(C)c3oc-2c(C)c(=O)c1N)[C@@H](C)O)C(C)C", "category-label": -1}
